Values were extracted from patent US8513307B2.

Molecular target: enzyme ACAT-1 (Homo sapiens, UniProt P35610)
Construct: endogenous in cells
Sequence (P35610 whole entry): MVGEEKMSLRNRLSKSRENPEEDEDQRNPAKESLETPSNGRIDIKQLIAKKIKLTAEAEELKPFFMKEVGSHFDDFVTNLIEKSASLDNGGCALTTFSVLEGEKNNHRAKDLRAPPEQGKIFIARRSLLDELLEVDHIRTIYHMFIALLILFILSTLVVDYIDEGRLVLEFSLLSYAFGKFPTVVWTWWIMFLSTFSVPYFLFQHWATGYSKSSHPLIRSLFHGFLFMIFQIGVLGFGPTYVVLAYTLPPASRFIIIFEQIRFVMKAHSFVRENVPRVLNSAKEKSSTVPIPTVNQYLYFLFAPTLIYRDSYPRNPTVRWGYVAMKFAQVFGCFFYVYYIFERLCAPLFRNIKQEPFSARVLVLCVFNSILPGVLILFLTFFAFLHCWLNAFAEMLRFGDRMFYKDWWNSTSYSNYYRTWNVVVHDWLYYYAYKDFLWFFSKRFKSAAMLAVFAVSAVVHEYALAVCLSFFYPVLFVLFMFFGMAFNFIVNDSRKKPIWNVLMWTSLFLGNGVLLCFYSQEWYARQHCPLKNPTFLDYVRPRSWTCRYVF
Assay: primary enzymatic test HepG2: NBD-cholesterol fluorescence test of inhibitory action on ACAT-1 (SOAT-1)
Conditions: HepG2 cells, NBD-cholesterol 1 μg/ml, incubation 6 h at 37° C., fluorescence excitation 490 nm, emission 540 nm
pIC50: −log10 of the molar value.
propertyLabel: pIC50

{"querySmiles": "CCc1ccc(N2C(=O)N(CC(=O)Nc3c(C(C)C)cccc3C(C)C)CC23CCCCC3)cc1", "pIC50": 8.15}

I: CCC1(CC)CN(CC(=O)Nc2c(C(C)C)cccc2C(C)C)C(=O)N1c1ccc(C)cc1
II: CC(C)c1cccc(C(C)C)c1NC(=O)CN1CC2(CCCCC2)N(c2ccccc2)C1=O
III: Cc1ccc(N2C3(CCCCC3)CN(CC(=O)Nc3c(C(C)C)cccc3C(C)C)S2(=O)=O)cc1
Input: In this exercise, place the 3 molecules in ascending sequence of their recorded pIC50. Rank them, then answer with their labels in that order.
Output: II, III, I
